Test Target: Platelet-activating factor receptor (Homo sapiens, UniProt P25105)
Sequence (P25105 whole entry): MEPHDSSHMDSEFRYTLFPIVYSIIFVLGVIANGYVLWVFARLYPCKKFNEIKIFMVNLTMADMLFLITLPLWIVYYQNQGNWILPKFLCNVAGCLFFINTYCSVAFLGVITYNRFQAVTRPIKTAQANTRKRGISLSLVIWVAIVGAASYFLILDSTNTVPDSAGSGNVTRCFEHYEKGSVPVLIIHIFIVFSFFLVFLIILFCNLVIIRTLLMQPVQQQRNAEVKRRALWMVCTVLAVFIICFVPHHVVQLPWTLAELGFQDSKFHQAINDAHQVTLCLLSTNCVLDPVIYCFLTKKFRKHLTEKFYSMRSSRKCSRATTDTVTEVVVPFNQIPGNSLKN
Measurement Name: IC50

[[record]]
molecule = "COc1ccccc1C1NCc2nnc(C)n2-c2sc3c(c21)CC(C(=O)N1CCOCC1)C3 (stereo not given)"
measurement_name = "IC50"
result = "> 322 nM"

[[record]]
molecule = "Cc1nnc2n1-c1sc3c(c1C(c1ccccc1)NC2)CC(C(=O)N1CCOCC1)C3 (stereo not given)"
measurement_name = "IC50"
result = "102 nM"

[[record]]
molecule = "Cc1nnc2n1-c1sc3c(c1C(c1cc(F)cc(F)c1)NC2)CC(C(=O)N1CCOCC1)C3 (stereo not given)"
measurement_name = "IC50"
result = "> 322 nM"

[[record]]
molecule = "Cc1nnc2n1-c1sc3c(c1C(c1ccccc1C1CC1)NC2)CC(C(=O)N1CCOCC1)C3 (stereo not given)"
measurement_name = "IC50"
result = "> 322 nM"

[[record]]
molecule = "Cc1ccccc1[C@H]1NCc2nnc(C)n2-c2sc3c(c21)C[C@H](C(=O)N1CCOCC1)C3"
measurement_name = "IC50"
result = "> 568 nM"


The values you see were collected from BindingDB's records for patent WO2022101377.
